- target or test system: T1, Formyl-Peptide Receptor 1 (UniProt P21462 1-350, limits assumed)
- T1 sequence (looked up): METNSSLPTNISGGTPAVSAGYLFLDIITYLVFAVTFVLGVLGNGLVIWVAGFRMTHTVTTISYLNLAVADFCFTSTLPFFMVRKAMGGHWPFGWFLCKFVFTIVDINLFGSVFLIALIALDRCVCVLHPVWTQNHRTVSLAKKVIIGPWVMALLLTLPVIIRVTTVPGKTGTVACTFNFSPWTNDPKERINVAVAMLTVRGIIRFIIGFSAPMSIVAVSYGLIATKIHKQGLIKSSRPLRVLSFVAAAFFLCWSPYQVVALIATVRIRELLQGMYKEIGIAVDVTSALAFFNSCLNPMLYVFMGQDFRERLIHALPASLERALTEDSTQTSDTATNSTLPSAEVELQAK
- protocol notes: cell-based or functional assay
Bridges are numbered along the chain shown (N, C = ends). [ ]: non-standard residue; d: D form.
measured endpoint: β-Arrestin IC50

For cyclo(THACWG[dP]WTICYQK[dP]P) (disulfide 4-11; SMILES CC[C@H](C)[C@@H]1NC(=O)[C@H]([C@@H](C)O)NC(=O)[C@H](Cc2c[nH]c3ccccc23)NC(=O)[C@H]2CCCN2C(=O)CNC(=O)[C@H](Cc2c[nH]c3ccccc23)NC(=O)[C@@H]2CSSC[C@H](NC1=O)C(=O)N[C@@H](Cc1ccc(O)cc1)C(=O)N[C@@H](CCC(N)=O)C(=O)N[C@@H](CCCCN)C(=O)N1CCC[C@@H]1C(=O)N1CCC[C@H]1C(=O)N[C@@H]([C@@H](C)O)C(=O)N[C@@H](Cc1c[nH]cn1)C(=O)N[C@@H](C)C(=O)N2) [cyclo(-Thr-His-Ala-Cys-Trp-Gly-^DPro-Trp-Thr-Ile-Cys-Tyr-Gln-Lys-^DPro-Pro-)] , what is its reported β-Arrestin IC50?
294 nM
